Target: TSLP, Q969D9
Experiment: Kd (SPR)
Endpoint: Kd (nM)
The reply should contain only the number, in nM.

Solved cases (2 shown):
Request: Please report the recorded Kd for unnamed (protein) chain 1: QMQLVESGGGVVQPGRSLRLSCAASGFTFSTYAMHWVRQAPGKGLEWVAVIWYDGSNKHYADSVKGRFTITRDNSKNTLNLQMNSLRAEDTAVYYCARAPRYYWYYEAFDVWGQGTMVTVSS chain 2: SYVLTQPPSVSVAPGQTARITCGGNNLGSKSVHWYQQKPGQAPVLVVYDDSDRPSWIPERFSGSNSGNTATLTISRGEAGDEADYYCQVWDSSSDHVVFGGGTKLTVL .
Result: 87.1

Request: Please report the recorded Kd for unnamed (protein) chain 1: QMQLVESGGGVVQPGRSLRLSCAASGFTFRTYGMHWVRQAPGKGLEWVAVIWYDGSNKHYADSVKGRFTITRDNSKNTLNLQMNSLRAEDTAVYYCARAPRYDDLWEAFDVWGQGTMVTVSS chain 2: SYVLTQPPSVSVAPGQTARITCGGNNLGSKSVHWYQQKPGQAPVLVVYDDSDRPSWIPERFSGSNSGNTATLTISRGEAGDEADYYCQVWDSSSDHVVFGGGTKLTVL .
Result: 61.1

Next:
Request: Please report the recorded Kd for unnamed (protein) chain 1: QMQLVESGGGVVQPGRSLRLSCAASGFTFSTFAMHWVRQAPGKGLEWVAVIWYDGSNKHYADSVKGRFTITRDNSKNTLNLQMNSLRAEDTAVYYCARAPRYYWYYEAFDVWGQGTMVTVSS chain 2: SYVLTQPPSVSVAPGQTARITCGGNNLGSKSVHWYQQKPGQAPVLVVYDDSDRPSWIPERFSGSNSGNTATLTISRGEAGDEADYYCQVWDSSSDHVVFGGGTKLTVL .
Result: 96.6
